biological target: human PAR4 (Homo sapiens, UniProt Q96RI0); assay: PAR4 FLIPR assay: antagonism of agonist-peptide-induced calcium mobilization in PAR4-expressing HEK293 cells; details: H-Ala-Phe(4-F)-[…]NH2-induced intracellular calcium mobilization, 11-point curves
READOUT LABEL: IC50 (nM)

[1] COc1cnc2c(-c3nc4cc(F)c(OC[C@@H](C)OC(=O)Nc5cncc(F)c5)nc4s3)cc(C)cc2n1 [Example 682]
[2] CCCc1ncc(NC(=O)O[C@H](C)[C@H](C)Oc2cc3sc(-c4cc(C)cc5nc(OC)cnc45)nc3cc2F)cn1 [Example 414]
[3] COCc1cnc2c(-c3nc4c(C)cc(O)cc4s3)cc(C)cc2n1 [Example 281]
[4] CCCOc1cnc2c(-c3nc4cc(F)c(O[C@@H](C)[C@@H](C)OC(=O)Nc5cnc(C)nc5)cc4s3)cc(C)cc2n1 [Example 491]
Input line: Could you please sort these 4 entries by IC50 from high to low? Give the order by naming the labels one after another as requested.
Output line: 2, 3, 1, 4

* * *

target: human PAR4 (Homo sapiens, UniProt Q96RI0); assay: PAR4 FLIPR assay: antagonism of agonist-peptide-induced calcium mobilization in PAR4-expressing HEK293 cells; settings: H-Ala-Phe(4-F)-[…]NH2-induced intracellular calcium mobilization, 11-point curves
READOUT LABEL: IC50 (nM)

# MOLECULE, UNITS TEXT, IC50
rows = [
    ("Cc1cc(-c2nc3c(C)cc(OCCNS(=O)(=O)c4ccc(F)cc4)cc3s2)c2ncc(C(C)F)nc2c1 (stereo not shown) [Example 108]", "nM", 1100),
    ("COc1c(F)cc(F)c2nc(-c3cc(C)cc4nc(OC(F)F)cnc34)sc12 [Example 13]", "nM", 3.5),
]

[A] COCc1cnc2c(-c3nc4c(Cl)c(F)c(OCCOC(=O)Nc5ccc(F)nc5)cc4s3)cc(C)cc2n1 [Example 305]
[B] COc1cnc2c(-c3nc4c(s3)CCCCC4)cc(C)cc2n1 [Example 137]
Input line: Which has the higher IC50, A or B ? Record your answer as the label of the chosen record.
Output line: B

* * *

Target: human PAR4 (Homo sapiens)
Sequence (Q96RI0 18-385): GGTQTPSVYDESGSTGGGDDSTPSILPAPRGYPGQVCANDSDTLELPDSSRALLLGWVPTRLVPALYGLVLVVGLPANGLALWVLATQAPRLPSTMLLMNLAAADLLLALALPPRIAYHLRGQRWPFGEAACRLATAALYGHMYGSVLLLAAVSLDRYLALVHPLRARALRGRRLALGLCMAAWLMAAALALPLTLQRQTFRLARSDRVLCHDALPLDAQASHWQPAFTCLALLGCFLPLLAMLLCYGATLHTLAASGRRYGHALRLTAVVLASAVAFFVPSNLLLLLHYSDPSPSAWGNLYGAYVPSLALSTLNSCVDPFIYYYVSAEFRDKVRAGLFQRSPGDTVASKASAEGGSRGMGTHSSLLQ
Test: PAR4 FLIPR assay: antagonism of agonist-peptide-induced calcium mobilization in PAR4-expressing HEK293 cells
Settings: H-Ala-Phe(4-F)-[…]NH2-induced intracellular calcium mobilization, 11-point curves
READOUT LABEL: IC50 (nM)

# MOLECULE, UNITS TEXT, IC50
measured = [
    ("COCc1cnc2c(-c3nc4c(C(O)c5cccnc5)cc(OC)cc4s3)cc(C)cc2n1 (centres unmarked) [Example 168]", "nM", 2),
    ("COc1cnc2c(-c3cc4c(OCc5ccccc5)cccc4o3)cc(C)cc2n1 [Example 43]", "nM", 170),
    ("COc1cnc2c(-c3cc4ccccc4o3)cc(C)cc2c1 [Example 177]", "nM", 190),
]

[I] COCCNC(=O)c1cc(-c2nc3c(C)cc(OCCNS(=O)(=O)c4ccc(F)cc4)cc3s2)c2ncc(COC)nc2c1 [Example 228]
[II] COCc1cnc2c(-c3nc4cc(OC)c(OC)cc4s3)cc(C)cc2n1 [Example 311]
[III] COCc1cnc2c(-c3nc4c(C)c(F)c(OCC(=O)OC)cc4s3)cc(C)cc2n1 [Example 286]
[IV] COCc1cnc2c(-c3nc4c(Cl)c(C)c(OCCO)cc4s3)cc(C)cc2n1 [Example 327]
[V] COc1cnc2c(-c3nc4cc(F)c(O[C@@H](C)[C@@H](C)OC(=O)Nc5cnc(C)nc5)cc4s3)cc(C#N)cc2n1 [Example 825]
Input line: Hey, quick one: sort these by IC50, largest value first please. Give the order by naming the labels one after another as requested.
Output line: I, II, V, IV, III
